test system: NCI/ADR-RES ovarian; test: NCI tumour cell line growth inhibition, 48 h
Parameter measured: TGI

Would you kindly share the measured TGI for CC1=NN(C(=O)c2ccccc2O)C(c2ccccc2Cl)C1C(=O)Nc1ccccc1 (stereo not given) ?
> 49.5 µM

Would you kindly share the measured TGI for Cc1cc(C)c(NS(=O)c2cccc(Cl)c2)c(C)c1 (stereo not given) ?
> 100 µM

Would you kindly share the measured TGI for "Clc1ccc(-c2nnc(C34CC5CC(CC(C5)C3)C4)o2)cc1" ?
> 100 µM

Would you kindly share the measured TGI for "O=[N+]([O-])c1ccc(NC(=S)Nc2ccccn2)cc1" ?
> 100 µM

Would you kindly share the measured TGI for "C=CC(=O)Nc1cccc(C)c1Nc1ncc2cc(-c3c(Cl)c(OC)cc(OC)c3Cl)ccc2n1" ?
66.5 µM

Would you kindly share the measured TGI for CCOC1C=CCCO1 (stereo not given) ?
> 100 µM

Would you kindly share the measured TGI for "O=S1c2ccccc2SCSc2ccccc21" ?
> 100 µM

Would you kindly share the measured TGI for "NCCCCN(Cc1nc2ccccc2[nH]1)[C@H]1CCCc2cccnc21" ?
> 100 µM

Would you kindly share the measured TGI for "CCCCCCCCNC(=S)/N=C/c1c(O)c2ccccc2oc1=O" ?
47.4 µM

Would you kindly share the measured TGI for COC(=O)CC1(O)C(/C=C/c2ccccc2)C(C(=O)OC)C(=O)C(C(=O)OC)C1C(=O)OC (stereo not given) ?
> 100 µM

Would you kindly share the measured TGI for "CN1CCn2c(c(Sc3ccc(C(=O)NO)cc3)c3ccccc32)C1=O" ?
> 87.1 µM

Would you kindly share the measured TGI for "Clc1nc(Cl)c(Cc2ccccc2)c(Cl)n1" ?
> 100 µM

Would you kindly share the measured TGI for "CC(C)c1ccc2[nH]c(O)c(C3=Nc4ccccc4C3=O)c2c1" ?
> 100 µM

Would you kindly share the measured TGI for "CC(=O)OC[C@@H](OC(C)=O)[C@@H](OC(C)=O)[C@H]1OC[C@@H]2C[C@H]([C@H]1OC(C)=O)N(Cc1ccccc1)O2" ?
> 100 µM

Would you kindly share the measured TGI for "COC(=O)c1c(O)ccc2c1c1c(n2-c2ccc(OC)cc2)C(=O)c2ccccc2C1=O" ?
48 µM

Would you kindly share the measured TGI for "COCCNC(=O)c1ccc(-c2nc3ccc4[nH]ncc4c3c3c2CCCC3)cc1" ?
> 100 µM

Would you kindly share the measured TGI for "N#C/C(=C\c1ccc(Br)cc1)c1nc(-c2cc3ccccc3oc2=O)cs1" ?
34.4 µM

Would you kindly share the measured TGI for CC1/C(=N/Nc2ccc([N+](=O)[O-])cc2)CC2C3(C)CCC2(C(C)C(=O)O)C(=O)C13 (stereo not given) ?
> 100 µM

Would you kindly share the measured TGI for COc1ccc2c(c1)CCCN1Cc3ccccc3CC21 (stereo not given) ?
> 100 µM

Would you kindly share the measured TGI for "O=C(Cc1ccccc1)NNc1nc(NNC(=O)c2ccncc2)nc(Nc2ccc(Cl)cc2)n1" ?
> 10 µM

Would you kindly share the measured TGI for "O=C1NC(=NC2CCCCC2)C2(CCN(CCCC3(c4ccc(F)cc4)OCCO3)CC2)N1c1ccccc1" ?
66.8 µM

Would you kindly share the measured TGI for "CNc1nc(N(C)C)nc(N(C)C)n1" ?
2650 µM

Would you kindly share the measured TGI for "S=C(Nc1ccccc1)N(Cc1ccccc1)c1ccccc1" ?
> 100 µM

Would you kindly share the measured TGI for "COc1cc(/C=C/C(=O)c2c(C)n([O-])c3ccc(Cl)cc3[n+]2=O)cc(OC)c1OC" ?
> 100 µM

Would you kindly share the measured TGI for CC(C)(C)N(Cc1ccoc1)C(=O)/C=C\S(=O)c1ccccc1 (stereo not given) ?
56.2 µM

Would you kindly share the measured TGI for CC(=O)N1C2=CCCC2(C)c2ccccc21 (stereo not given) ?
> 100 µM

Would you kindly share the measured TGI for O=C(CN1CCOCC1)Nc1ccc2c(c1)C1Oc3ccccc3CC1CO2 (stereo not given) ?
> 100 µM

Would you kindly share the measured TGI for "Cc1ccc(S(=O)(=O)NC2=NS(=O)(=O)c3cc(C)c(Cl)cc3S2)cc1" ?
> 100 µM

Would you kindly share the measured TGI for "CCOC(=O)/C=C/c1c[nH]c(C(=O)OCC)c1" ?
> 100 µM

Would you kindly share the measured TGI for O=C(CN1C(=O)c2ccccc2C1=O)C(O)CN1C(=O)c2ccccc2C1=O (stereo not given) ?
> 100 µM

---

system: IGROV1 ovarian; assay: NCI tumour cell line growth inhibition, 48 h
Answer each item with its documented GI50.

Would you kindly share the measured GI50 for CSC1C(=O)c2ccccc2/C(=N/Nc2nc3ccccc3s2)C1C (stereo not drawn) ?
648 nM

Would you kindly share the measured GI50 for N#CC1=C(N)Oc2c(sc3c(F)cccc23)C1c1ccc(F)cc1 (stereo not drawn) ?
621 nM

Would you kindly share the measured GI50 for "O=C1/C(=C/c2ccc(Cl)cc2)COc2ccc(O)c(O)c21" ?
438 nM

Would you kindly share the measured GI50 for "O=Cc1ccc(O)c2ncccc12" ?
3320 nM

Would you kindly share the measured GI50 for "COc1cc(/C=C/C(=O)c2c(C)n([O-])c3ccc(Cl)cc3[n+]2=O)cc(OC)c1OC" ?
35400 nM

Would you kindly share the measured GI50 for "OCCNCCNc1c2ccccc2nc2oc3ccccc3c12" ?
7300 nM

Would you kindly share the measured GI50 for "O=C(N/N=C\c1ccc(N(CCCl)CCCl)cc1Cl)c1cccnc1" ?
1500 nM

Would you kindly share the measured GI50 for "C=C1C(=O)O[C@H]2[C@H]1CC/C(CNS(=O)(=O)c1cccc3ccccc13)=C\CC[C@@]1(C)O[C@@H]21" ?
1380 nM

Would you kindly share the measured GI50 for "CN(C)CCNC(=O)c1cc2c3ccccc3[nH]c2c2ncccc12" ?
1140 nM

Would you kindly share the measured GI50 for "CN(C)c1ccc(O)c2c1C[C@H]1C[C@H]3[C@H](N(C)C)C(=O)C(C(N)=O)=C(O)[C@@]3(O)C(=O)C1=C2O" ?
3420 nM

Would you kindly share the measured GI50 for "COc1cccc2c(=O)c3c(sc12)c(NCCN(C)C)nc1ccccc13" ?
1190 nM

Would you kindly share the measured GI50 for "C=C1CC[C@@H]2[C@](C)(COC(C)=O)[C@H](OC(C)=O)CC[C@@]2(C)[C@@H]1C/C=C1/C(=O)OC[C@H]1OC(C)=O" ?
2410 nM

Would you kindly share the measured GI50 for Cc1nn(-c2nc3ccccc3[nH]2)c2c1C(c1ccc3c(c1)OCO3)CC(=O)N2 (stereo not drawn) ?
2360 nM

---

tested on: MCF7 breast; test: NCI tumour cell line growth inhibition, 48 h
Kind request: treat 40 µM as inclusive, so TGI at 40 µM or higher is MET, anything lower is NOT MET.

Decide: TGI of "O=C1NC(=NC2CCCCC2)C2(CCN(CCCC3(c4ccc(F)cc4)OCCO3)CC2)N1c1ccccc1" >= 40 µM?
MET

Decide: TGI of "N#C/C(=C\c1ccc(Br)cc1)c1nc(-c2cc3ccccc3oc2=O)cs1" >= 40 µM?
MET

Decide: TGI of CC(=O)N1N=C(c2c(O)ccc3ccccc23)CC1c1ccc(Cl)cc1 (stereo unspecified) >= 40 µM?
NOT MET

Decide: TGI of COc1cc(C2c3cc4c(cc3OC(NCc3ccccc3)C2C)OCO4)cc(OC)c1OC (stereo unspecified) >= 40 µM?
MET

Decide: TGI of "O=C(/C=C(\O)c1ccc(Cl)cc1)C(=O)NN=C(c1ccccc1)c1ccccc1" >= 40 µM?
MET

Decide: TGI of CCSC(=O)/C=C1\CN(C(=O)OC(C)(C)C)C1C(=O)OC(C)(C)C (stereo unspecified) >= 40 µM?
NOT MET

Decide: TGI of "Cc1cc(N)ccc1C=O" >= 40 µM?
MET

Decide: TGI of "CCOC(=O)C#Cc1c(CC(=O)OCC)nnn1[C@H]1O[C@@H](CO)[C@@H]2OC(C)(C)O[C@@H]21" >= 40 µM?
NOT MET

Decide: TGI of "Cc1csc2nc3[nH]ncc3c(=O)n12" >= 40 µM?
MET

Decide: TGI of CCN1C[C@]2(C)CC[C@H](OCc3ccccc3)C34C5C[C@@H]6CC[C@](O)(C(C[C@@H]32)C14)C5[C@H]6OCc1ccccc1 (stereo partly specified) >= 40 µM?
MET

---

system: UACC-257 melanoma; assay: NCI tumour cell line growth inhibition, 48 h
Parameter measured: GI50

Would you kindly share the measured GI50 for "CN1CCn2c(c(Sc3ccc(C(=O)NO)cc3)c3ccccc32)C1=O" ?
1.51 µM

Would you kindly share the measured GI50 for CC1=C(C(=O)Nc2ccc(F)c(Cl)c2)C(c2cccc(Oc3ccccc3)c2)NC(=O)N1 (stereo not given) ?
18 µM

Would you kindly share the measured GI50 for Cc1nn(-c2nc3ccccc3[nH]2)c2c1C(c1ccc3c(c1)OCO3)CC(=O)N2 (stereo not given) ?
2.41 µM

Would you kindly share the measured GI50 for "OCCNCCNc1c2ccccc2nc2oc3ccccc3c12" ?
15.6 µM

Would you kindly share the measured GI50 for "C=C1C(=O)O[C@H]2[C@H]1CC/C(CNS(=O)(=O)c1cccc3ccccc13)=C\CC[C@@]1(C)O[C@@H]21" ?
1.64 µM

Would you kindly share the measured GI50 for COc1ccc2c(c1)OC(N)=C(C#N)C2c1ccc(F)cc1 (stereo not given) ?
24.5 µM

Would you kindly share the measured GI50 for "C[CH2][Sn]([Cl])([Cl])[CH2]C" ?
18.4 µM

Would you kindly share the measured GI50 for OC(CNc1ccnc2cc(Cl)ccc12)CNC1CCCCC1 (stereo not given) ?
1.78 µM

Would you kindly share the measured GI50 for "CS(=O)(=O)Nc1cc(-c2ccc3ncnc(Nc4ccc5c(cnn5Cc5ccccc5F)c4)c3c2)cnc1Cl" ?
1.51 µM

Would you kindly share the measured GI50 for "O=C(/C=C/c1ccc(C(F)(F)F)cc1)c1ccc(Nc2nc(NCCO)nc(N3CCOCC3)n2)cc1" ?
3.98 µM

Sourced from PubChem BioAssay (NCI)
